Values compiled from paper PMC7498318.

target: hnRNPK R9 to S9 (human/mouse (100% identical), UniProt P61978 1-463, R247S;R256S;R258S;R268S;R287S;R296S;R299S;R316S;R326S); experiment: fluorescence anisotropy
Sequence (P61978 whole entry R247S/R256S/R258S/R268S/R287S/R296S/R299S/R316S/R326S): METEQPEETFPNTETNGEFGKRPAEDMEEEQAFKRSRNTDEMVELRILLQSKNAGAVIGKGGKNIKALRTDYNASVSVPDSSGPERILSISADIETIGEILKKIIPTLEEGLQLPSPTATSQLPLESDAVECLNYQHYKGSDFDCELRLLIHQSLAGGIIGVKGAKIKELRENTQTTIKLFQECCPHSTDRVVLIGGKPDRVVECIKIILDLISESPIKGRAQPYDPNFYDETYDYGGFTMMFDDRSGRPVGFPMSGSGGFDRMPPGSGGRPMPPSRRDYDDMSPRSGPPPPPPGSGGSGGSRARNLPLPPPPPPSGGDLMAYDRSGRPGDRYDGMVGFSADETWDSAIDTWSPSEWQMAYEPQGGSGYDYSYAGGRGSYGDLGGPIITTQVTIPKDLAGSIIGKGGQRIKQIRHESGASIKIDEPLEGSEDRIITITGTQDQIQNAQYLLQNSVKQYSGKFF
Observation Type: Kd (µM)

                           binder  reading_unit  recorded_value
0  ATATTCCCTC (ssDNA) [M5' ssDNA]            µM               3
